tested on: Panc02.13 cells expressing vector only (02.13-WT); assay: Kinetic cell growth assay, Panc02.13 cells expressing vector only; assay type: cell-based, human; details: low density, read-out: Low density (EC50, nM) 02.13-WT
EXPERIMENTAL ENDPOINT: EC50

Answered cases to consult:
MOLECULE	EC50
O=C1[O][Pt]2([NH][C@@H]3CCCC[C@H]3[NH]2)[O]C1=O	937 nM
N.N.[Cl][Pt][Cl] [Cisplatin]	> 10000 nM

Value of EC50 reported for the molecule CCc1c2c(nc3ccc(OC(=O)N4CCC(N5CCCCC5)CC4)cc13)-c1cc3c(c(=O)n1C2)COC(=O)[C@]3(O)CC is 1070 nM
